Where do the numbers come from? From a melting point compilation (Tetko et al.; mined from patent text by program, amines drawn as free bases though some values may be those of a salt).

EXPERIMENTAL_ENDPOINT: melting point

Check out these entries, answers already filled in.
Reported melting point ( CC(C)(C#N)c1ccc(C(=O)c2cccs2)cc1 ) = 139 °C

The molecule CC(C)=CCN1CCc2c(sc(N)c2C(=O)c2ccc(Br)cc2)C1 showed melting point equal to 73 to 75 °C

Continuing:
GET /value?item= CNC(=O)CC1CN=C(c2cc3cc(Oc4ccc(S(C)(=O)=O)cn4)cc(OC(C)C)c3[nH]2)S1 (configuration not stated) &field=melting point returns 190 to 192 °C

Form: molecule = COC(=O)c1c(SC)nn(C2CCCC2)c1N ; melting point = 88 to 89 °C

CC(C)NC(=O)Nc1nc(Cc2c(Cl)cccc2Cl)nc(Nc2ccc(C#N)cc2)n1 has a reported melting point of 267 to 268 °C

Recorded result, CCN1CCCC1CNS(=O)(=O)c1ccc(Nc2ccnc3cc(Cl)ccc23)cc1 (configuration not stated) , melting point: 200 to 202 °C

Kindly note the recorded melting point for O=C(O)COc1cccc2c1OCc1sc(SCCC(c3ccccc3)c3ccccc3)nc1-2 , which is 112 to 114 °C

Input CCCN1CCC(C(=O)Nc2ccc(CN(C)C3CCOCC3)cc2)=Cc2cc(-c3ccc(N4CCOCC4)cc3)ccc21 . Output melting point: 114 to 118 °C

Entry CCCCCCS(=O)(=O)c1nn2c(=O)cc(C)nc2s1 ; melting point = 111 to 115 °C

For O=C(O)CCCCCc1c[nH]c2ccccc12 the molecule record lists melting point as 124 to 126 °C

// sample Cn1c(C(F)(F)F)cc(=O)n(-c2ccc3snc(C4OCC(CS(C)=O)O4)c3c2)c1=O (configuration not stated) , its melting point was 72 to 75 °C

So for CCOC(CNC(=S)Nc1c(F)ccc2nc(C)ccc12)OCC , the logged melting point turned out to be 189 to 191 °C

Lab note: COC(=O)[C@@]1(C)Cc2c([nH]c3ccc(OC)cc23)[C@@H](c2cccc(O)c2)N1 (racemic) gave melting point of 175 to 177 °C

What the record says about CCCNC(=O)C1(CCCCSc2ccccc2)c2ccccc2-c2ccccc21 : melting point is 50 to 53 °C

response.value for CCn1c(-c2ccnc(N)c2)nnc1C(C)(C)Oc1c(F)cc(Cl)cc1F (field: melting point) = 150 °C

Record COc1cc2c(cc1O)CCC1C2CCC2(C)C(O)C=CC12 (configuration not stated) . Reported melting point: 191 to 193 °C

Recorded result, Cc1c(F)c(F)c(CNc2ccc(O)c(C(=O)O)c2)c(F)c1F , melting point: 212 °C

Data point: COc1ccc(CCCCCCCCO)cc1 ; melting point = 47 to 49 °C

The recorded melting point for entry CN(CCCCOCC(=O)O)c1cnc(-c2ccc(F)cc2)c(-c2ccc(F)cc2)n1 equals 116 to 118 °C

For COc1ccc(NC(=O)N(O)C2CCCCCCC2)cc1 the molecule record lists melting point as 166 to 167 °C

So for Cc1cccc(C(=O)Nc2ccc(N3CCN(Cc4ccc[nH]4)CC3)nc2)c1-c1ccc(C(C)C)cc1 , the logged melting point turned out to be 130 °C
